Provide the reported %Inh of each item.
Test system: HIPK1
Conditions: concentration: 1 μM,replicates: in singlicate; n = 1;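 further: KINOMEscan kinase panel screen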
Answers are plain numbers, in %.

Hi team, please reply with %Inh for each item in this list.
1. O=C(Nc1n[nH]c2cc(-c3ccco3)ccc12)C1CC1 [SB-737447]
2. OCCn1cc(-c2cnc3nnn(Cc4ccc5ncccc5c4)c3n2)cn1
3. CN(c1ccccc1CNc1nc(Nc2ccc3c(c2)CC(=O)N3)ncc1C(F)(F)F)S(C)(=O)=O

1: 39; 2: 6; 3: 83

---

I'd be grateful if you could share measured %Inh for these entries.
Tested on: MINK
Construct: gene MINK1
Details: concentration: 1 μM,replicates: in singlicate; n = 1
Numbers only, in %.

Examples with their reported %Inh follow.
O=C(Nc1ccc(Oc2ccc3nc(NC(=O)C4CC4)cn3n2)c(F)c1)c1cccn(-c2ccccc2)c1=O: 0
Cn1cc(-c2cccc3c(N)c(C(N)=O)nnc23)cn1: 29
Cn1ccc2ncnc(Oc3ccc(NC(=O)Nc4ccnc(C(F)(F)F)c4)c(Cl)c3)c21: 0
Cn1ccc2ncnc(Oc3ccc(NC(=O)Nc4cc(C(C)(C)C)on4)c(Cl)c3)c21: 91.6
CSc1nccc(-c2c(-c3ccc(F)cc3)ncn2CCCN2CCOCC2)n1.Cl [SB-217146]: 26

For every item below, please supply its %Inh.
1. COc1cccc(CNC(=O)NC2CCN(c3ccnc(Nc4cc(OC)c(OC)c(OC)c4)n3)C2)c1 (stereo not drawn) [GSK1379765]
2. C[C@@H]1CCN(C(=O)N2CCCC2)C[C@@H]1N(C)c1ncnc2[nH]ccc12
3. Cl.Nc1n[nH]c2cc(-c3ccccn3)ccc12 [GSK2189892]
4. CS(=O)(=O)Nc1ccc(-c2ccnc3[nH]ccc23)cc1 [GSK993273]

12
30
0
23

---

Test system: CSNK1A1L
Details: concentration: 1 μM,replicates: in singlicate; n = 1
Binary classification by %Inh, with 10% as an inclusive lower bound for label 1; all other cases are label 0.

COC(=O)Nc1nc2cc(Oc3ccc(NC(=O)Nc4cc(C(F)(F)F)ccc4Cl)cc3)ccc2[nH]1.Cl: label 0
COc1ccc(Nc2nccc(N3CCC(NC(=O)c4cccc(C#N)c4)C3)n2)cc1 (centres unmarked): label 1
CC(C)S(=O)(=O)N1CCN(Cc2ccc3c(c2)nc(NC(=O)c2ccsc2)n3C[C@H](O)c2ccccc2)CC1: label 1

Check this compound for %Inh at or above 10%: Cl.Cl.NC[C@H](CC1CCCCC1)NC(=O)c1ccc(-c2ccnc3[nH]ccc23)s1
label 1

Quick check, %Inh >= 10%? CS(=O)(=O)c1cccc(CNc2nc(Nc3ccc4c(c3)[C@@H]3C[C@@H]4CNC3=O)ncc2C(F)(F)F)c1
label 0

---

System: GRK7
Settings: concentration: 1 μM,replicates: in singlicate; n = 1
Give %Inh for every item shown.
Numbers only, in %.

Solved cases (5 shown):
CN1CCN(CCNc2nc3cc(Oc4ccc(NC(=O)Nc5cc(C(F)(F)F)ccc5F)cc4)ccc3[nH]2)CC1.Cl.Cl: 0
C[C@@H](Oc1cc(-n2cnc3ccc(-c4ccncc4)cc32)sc1C(N)=O)c1ccccc1Cl: 0
c1ccc(Oc2ccc(Nc3ccnc4ccc(-c5ccccn5)cc34)cc2)cc1: 0
CS(=O)(=O)Nc1ccc(-c2ccnc3[nH]ccc23)cc1: 76
COc1cccc(OC)c1C(=O)Nc1cccc(-c2nn3ccccc3c2-c2ccnc(Nc3cccc(F)c3)n2)c1: 17

List reported %Inh for each of these molecules:
1. C[C@@H](Oc1cc(-n2cnc3cc(-c4cnn(C)c4)ccc32)sc1C(N)=O)c1ccccc1Cl
2. O=C(Nc1ccccc1)c1cccc(Oc2ccc3nccn3n2)c1
3. O=c1[nH]cc(-c2ccc(O)cc2)c2sc(-c3ccncc3)cc12

0
0
0
